For each of the compounds below, state its IC50.
# assay system: RET G810R (Homo sapiens (Human), UniProt P07949, G810R)
# Sequence (P07949 29-1114 G810R): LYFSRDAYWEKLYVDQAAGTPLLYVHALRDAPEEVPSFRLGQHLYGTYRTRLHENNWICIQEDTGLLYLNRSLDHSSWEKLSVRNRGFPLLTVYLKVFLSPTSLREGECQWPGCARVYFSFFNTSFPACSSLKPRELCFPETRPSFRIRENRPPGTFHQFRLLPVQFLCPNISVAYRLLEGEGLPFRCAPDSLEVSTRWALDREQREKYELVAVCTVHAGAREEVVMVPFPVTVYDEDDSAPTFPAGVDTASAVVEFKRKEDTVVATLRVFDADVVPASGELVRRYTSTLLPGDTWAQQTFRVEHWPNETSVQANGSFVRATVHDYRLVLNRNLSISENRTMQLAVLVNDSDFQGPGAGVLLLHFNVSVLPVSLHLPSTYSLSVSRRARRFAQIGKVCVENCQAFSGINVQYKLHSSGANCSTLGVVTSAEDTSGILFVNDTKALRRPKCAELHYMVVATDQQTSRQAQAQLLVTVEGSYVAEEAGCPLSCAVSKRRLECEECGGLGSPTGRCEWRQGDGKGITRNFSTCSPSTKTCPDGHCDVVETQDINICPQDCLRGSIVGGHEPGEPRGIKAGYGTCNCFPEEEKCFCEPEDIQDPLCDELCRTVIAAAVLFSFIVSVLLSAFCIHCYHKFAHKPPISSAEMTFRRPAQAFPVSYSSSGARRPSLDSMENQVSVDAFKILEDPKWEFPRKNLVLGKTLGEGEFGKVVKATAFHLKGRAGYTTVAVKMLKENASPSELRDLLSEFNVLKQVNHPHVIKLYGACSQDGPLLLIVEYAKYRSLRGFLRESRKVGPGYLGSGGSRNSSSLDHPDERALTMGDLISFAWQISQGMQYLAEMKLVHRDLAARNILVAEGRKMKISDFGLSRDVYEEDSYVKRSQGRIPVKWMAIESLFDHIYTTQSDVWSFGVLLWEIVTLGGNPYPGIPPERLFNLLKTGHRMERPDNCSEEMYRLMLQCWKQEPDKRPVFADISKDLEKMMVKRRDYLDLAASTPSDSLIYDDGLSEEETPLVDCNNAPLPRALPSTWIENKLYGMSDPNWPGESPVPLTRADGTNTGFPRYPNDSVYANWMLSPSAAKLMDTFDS
# assay summary: HTRF KinEASE-TK kinase activity test, RET G810R
# recorded conditions: read-out: RET G810R IC50; HTRF kinase assay
One number for each entry, in nM.

compound="CCOc1cc(-c2ccc(N3CC4(CCCN4Cc4ccc(OC)nc4)C3)nc2)c2c3cn[nH]c3nn2c1 [Compound 188]" assay_endpoint=IC50 units_label=nM numeric_value=16.9
compound="CCOc1cc(-c2ccc(N3CCC(Oc4ccc(OC)nn4)CC3)nc2)c2c3cn[nH]c3nn2c1 [Compound 8]" assay_endpoint=IC50 units_label=nM numeric_value=8.7
compound="CCOc1cc(-c2ccc(N3CC4CCC3CN4Cc3ccc(OC)nc3)nc2)c2c3cn[nH]c3nn2c1 (centres unmarked) [Compound 160]" assay_endpoint=IC50 units_label=nM numeric_value=8.2
compound="CCOc1cc(-c2ccc(N3CC[C@H](NC(=O)c4cc(F)ccc4Cl)[C@H](O)C3)nc2)c2c3cn[nH]c3nn2c1 [Compound 276]" assay_endpoint=IC50 units_label=nM numeric_value=0.7
compound="CCOc1cc(-c2ccc(N3CCC(CO)(NC(=O)c4c(F)cccc4F)CC3)nc2)c2c3cn[nH]c3nn2c1 [Compound 11]" assay_endpoint=IC50 units_label=nM numeric_value=0.36
compound="CCOc1cc(-c2ccc(N3CCC(CO)(NCc4ccc(OC)nc4)CC3)nc2)c2c3cn[nH]c3nn2c1 [Compound 229]" assay_endpoint=IC50 units_label=nM numeric_value=38.1
compound="CCOc1cc(-c2ccc(N3CC[C@H](NC(=O)C(C)C(C)C)[C@H](O)C3)nc2)c2c3cn[nH]c3nn2c1 (some centres unmarked) [Compound 283]" assay_endpoint=IC50 units_label=nM numeric_value=9.9
compound="CCOc1cc(-c2ccc(N3CCC(S(=O)(=O)Cc4ccccc4)CC3)nc2)c2c3cn[nH]c3nn2c1 [Compound 34]" assay_endpoint=IC50 units_label=nM numeric_value=4.9
compound="CCOc1cc(-c2ccc(N3CC[C@H](NC(=O)c4c(F)cccc4Cl)[C@@H](O)C3)nc2)c2c3cn[nH]c3nn2c1 [Compound 44]" assay_endpoint=IC50 units_label=nM numeric_value=0.8
compound="CCOc1cc(-c2ccc(N3CC[C@H](NC(=O)C4(F)CC4)[C@H](O)C3)nc2)c2c3cn[nH]c3nn2c1 [Compound 282]" assay_endpoint=IC50 units_label=nM numeric_value=3.5

Can you give me IC50 for all of these, one by one?
1. CCOc1cc(-c2ccc(N3CCC4(CCN(C(=O)c5c(F)cccc5Cl)C4)CC3)nc2)c2c3cn[nH]c3nn2c1 [Compound 208]
2. CCOc1cc(-c2ccc(N3CC[C@H](NC(=O)c4ncccc4Cl)[C@H](O)C3)nc2)c2c3cn[nH]c3nn2c1 [Compound 42]
3. CCOc1cc(-c2ccc(N3CC[C@H](NC(=O)c4ccccc4C(F)(F)F)[C@H](O)C3)nc2)c2c3cn[nH]c3nn2c1 [Compound 279]
4. CCOc1cc(-c2ccc(N3CC[C@H](NC(=O)c4c(F)ccc(F)c4F)[C@H](O)C3)nc2)c2c3cn[nH]c3nn2c1 [Compound 274]

## Output
24.1
1.4
2.2
1.3
